These data points were gathered from patent US12534452B2.

pIC50: −log10 of the molar value.
The following molecules have recorded pIC50 on IRAK4 (Homo sapiens (Human)).
Sequence (Q9NWZ3 whole entry): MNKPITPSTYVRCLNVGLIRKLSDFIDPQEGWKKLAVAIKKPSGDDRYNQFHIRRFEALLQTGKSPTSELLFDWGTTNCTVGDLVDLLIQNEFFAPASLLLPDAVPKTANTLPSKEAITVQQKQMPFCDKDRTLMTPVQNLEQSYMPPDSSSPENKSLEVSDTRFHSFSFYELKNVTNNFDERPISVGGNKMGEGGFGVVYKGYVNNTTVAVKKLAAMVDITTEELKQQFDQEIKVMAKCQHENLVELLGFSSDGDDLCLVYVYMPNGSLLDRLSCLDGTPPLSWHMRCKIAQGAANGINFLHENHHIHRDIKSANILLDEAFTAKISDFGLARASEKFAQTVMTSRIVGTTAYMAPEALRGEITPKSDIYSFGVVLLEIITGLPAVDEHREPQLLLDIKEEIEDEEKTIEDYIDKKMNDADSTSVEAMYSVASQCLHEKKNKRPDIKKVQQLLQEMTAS

Before answering, review these 4 worked examples.
Cn1cc(-c2cccc(C(=O)Nc3nc(CCCC(=O)N4CCN(Cc5ccc(OC(F)(F)F)cc5)CC4)cn3-c3ccccc3)c2)cn1 = 7.00 to 7.30
Cn1cc(-c2cccc(C(=O)Nc3nc(CCCC(=O)NCCN4CCCCC4)cn3-c3ccccc3)c2)cn1 = > 7.30
COC[C@@H]1CCCN1NC(=O)Cc1cn(-c2ccccc2)c(NC(=O)c2cccc(-c3cn[nH]c3)c2)n1 = < 7.00
O=C(CCc1cn(-c2ccccc2)c(NC(=O)c2cccc(-c3cn[nH]c3)c2)n1)NN1CCCC1 = < 7.00

# next molecule below
Q: Read the entry C[C@H]1CCCN1C(=O)CCc1cn(-c2ccccc2)c(NC(=O)c2cccc(-c3cn[nH]c3)c2)n1 and write its reported pIC50.
Ans: > 7.30
